System: Colon cancer organoid
PROTOCOL_TEXT: Optimized Dual-Glo assay to identify co-culture induced drug vulnerabilities using donated chemical probes and chemogenomics kinase set in O06 CRC organoid and F06 CAF mono and co-culture. […] Cell viability is reported both mono and co-culture models.
Assay type: functional, Homo sapiens
Design: dose or concentration left out as unconfirmed
ASSAY_CONTEXT: Culture type Co-Culture; Transduced with Renilla-dsRed lentivirus

{"COMPOUND": "CC1CCN(c2ccnc(NCc3cn(C)cn3)n2)CC1", "UNIT_OF_MEASURE": "%", "Cell Viability": 83.2209}
{"COMPOUND": "CCn1c(-c2nc3cc(C(=O)N4CCCC(N)C4)ccc3n2C)cc2ccccc21.Cl (centres undefined)", "UNIT_OF_MEASURE": "%", "Cell Viability": 117.733}
{"COMPOUND": "CCC(=O)N1CCOc2c(cc(-c3ccc(OC)c(OC)c3)cc2OCC2CCCN(C)C2)C1 (centres undefined)", "UNIT_OF_MEASURE": "%", "Cell Viability": 135.091}
{"COMPOUND": "c1ccc(C2CCN(c3cnc4c(N5CCOCC5)nccn34)CC2)cc1", "UNIT_OF_MEASURE": "%", "Cell Viability": 98.7191}
{"COMPOUND": "CN(C)[C@@H]1CCN(c2cc(-c3ccccc3)nc3ccnn23)C1 [(R)-ZINC-3573]", "UNIT_OF_MEASURE": "%", "Cell Viability": 121.371}
{"COMPOUND": "Cn1c(C2(NC(=O)c3ccc4c(C5CCCC5)c(-c5ncc(Br)cn5)n(C)c4c3)CCC2)nc2ccc(/C=C/C(=O)O)cc21", "UNIT_OF_MEASURE": "%", "Cell Viability": 84.3073}
{"COMPOUND": "NS(=O)(=O)c1cc(NC(=O)Cc2ccccc2)ccc1Oc1cccc(Cl)c1", "UNIT_OF_MEASURE": "%", "Cell Viability": 167.635}
{"COMPOUND": "Cn1cncc1[C@@](O)(COc1ccc(C#N)cc1-c1ccc(OC(F)(F)F)cc1)c1ccc(C#N)cc1", "UNIT_OF_MEASURE": "%", "Cell Viability": 151.877}
{"COMPOUND": "CN(C)C(=O)c1sc2nc(N3CCC(S(C)(=O)=O)CC3)cc(C(F)(F)F)c2c1N", "UNIT_OF_MEASURE": "%", "Cell Viability": 103.89}

====

Test system: Colon cancer organoid
PROTOCOL_TEXT: Optimized Dual-Glo assay to identify co-culture induced drug vulnerabilities using donated chemical probes and chemogenomics kinase set in O06 CRC organoid and F06 CAF mono and co-culture. […] Cell viability is reported both mono and co-culture models.
Assay type: functional, Homo sapiens
Design: dose or concentration left out as unconfirmed
ASSAY_CONTEXT: Culture type Mono-Culture; Transduced with Renilla-dsRed lentivirus
Known Cell Viability of a selection of compounds

{"COMPOUND": "COc1nc2ccc([C@@](O)(c3ccccc3)C3CCN(C(C)=O)CC3)cc2c(Cl)c1Cc1ccc(-n2cccn2)cc1 [JNJ-54119936]", "Cell Viability [%]": 113.997}
{"COMPOUND": "CC(C)(O)c1cncc(-c2nc3ccc(F)cc3n2C2CC2)c1 [MSD-CYP11B2]", "Cell Viability [%]": 91.4752}
{"COMPOUND": "CCNC(=O)c1cc2c(N3CCOC[C@@H]3C)ccnc2n1C", "Cell Viability [%]": 98.196}
{"COMPOUND": "Cl.Cl.Cl.c1ccc(N2CCN(Cc3nc4ccccc4[nH]3)CC2)nc1", "Cell Viability [%]": 106.828}
{"COMPOUND": "Cn1nc(C(=O)NCc2ccc(C(=O)O)cc2)cc1-c1ccc2[nH]ccc2c1 [BI 4395]", "Cell Viability [%]": 79.5775}
{"COMPOUND": "COc1cc(C(=O)O)ncc1C#Cc1ccccc1NS(=O)(=O)c1cccc2c(N(C)C)ccnc12 [MSC-0516]", "Cell Viability [%]": 95.1501}
{"COMPOUND": "O=C(NCc1ccccc1)c1ccc(S(=O)(=O)NCc2ccccc2)cc1", "Cell Viability [%]": 148.571}
{"COMPOUND": "O=C(O)CNC(=O)c1c(O)c2ccccc2n(Cc2ccccc2)c1=O", "Cell Viability [%]": 94.3602}
{"COMPOUND": "CC(C)S(=O)(=O)c1ccc2nccc(Nc3ccc4scnc4c3)c2c1", "Cell Viability [%]": 111.512}
{"COMPOUND": "C=CC(=O)Nc1ccc2[nH]c(=O)n(C3CCN(C(=O)c4ccc(-c5nc6cc[nH]c(=O)c6cc5-c5ccccc5)cc4)CC3)c2c1", "Cell Viability [%]": 96.7859}
{"COMPOUND": "C[C@@H]1CCNC(=O)c2cc3ccc(C(=O)Nc4nc5ccccc5n4CCCN(C)C)cc3n21", "Cell Viability [%]": 73.3213}
{"COMPOUND": "O=C(N1CCS(=O)(=O)CC1)N1C[C@H](c2ccc(OC(F)(F)F)cc2)C[C@H](c2nc(C3CC3)no2)C1 [BAY-386]", "Cell Viability [%]": 101.013}
{"COMPOUND": "N#Cc1cnc(Nc2cc(NC[C@H]3CNCCO3)c(C(F)(F)F)cn2)cn1 [SRA-737]", "Cell Viability [%]": 117.124}
{"COMPOUND": "COc1cc(N(C)c2ccnc3ccc(C(F)(F)F)cc23)cc(OC)c1OC", "Cell Viability [%]": 116.943}
{"COMPOUND": "CN(C)C(=O)c1cc2cnc(Nc3ccc(N4CCNCC4)cn3)nc2n1C1CCCC1 [RIBOCICLIB]", "Cell Viability [%]": 111.56}
{"COMPOUND": "CNC(=O)c1cc(C(=O)N[C@H]2[C@@H]3COC[C@@H]32)cc2c1O[C@H](CF)[C@H]2c1ccccc1 [GSK973]", "Cell Viability [%]": 146.399}
{"COMPOUND": "CCc1cc2cc(NS(=O)(=O)c3ccc(C#N)cc3)ccc2n(CC)c1=O", "Cell Viability [%]": 101.813}
{"COMPOUND": "CC(C)Oc1ccc(-c2nn([C@@H](C)c3oc4ccc(F)cc4c(=O)c3-c3cccc(F)c3)c3ncnc(N)c23)cc1F [UMBRALISIB]", "Cell Viability [%]": 119.327}
